System: P-gp
Test: P-gp inhibition, calcein assay in P388/dx cells
Type: in vitro ADME
Conditions: mouse, P388/dx cells over-expressing murine mdr1a/b, probe calcein
Assay metric: IC50
Answer with the number, then the unit.

Tested system P-gp; IC50 recorded for CC1(C)CCC(CN2CCN(c3ccc(C(=O)NS(=O)(=O)c4ccc(NCC5CCOCC5)c([N+](=O)[O-])c4)c(Oc4cnc5[nH]ccc5c4)c3)CC2)=C(c2ccc(Cl)cc2)C1 was 30 µM

----------
Biological target: CYP3A4 (Homo sapiens)
Construct: purchased Becton Dickinson Biosciences (Heidelberg, Germany)
Sequence (P08684 whole entry): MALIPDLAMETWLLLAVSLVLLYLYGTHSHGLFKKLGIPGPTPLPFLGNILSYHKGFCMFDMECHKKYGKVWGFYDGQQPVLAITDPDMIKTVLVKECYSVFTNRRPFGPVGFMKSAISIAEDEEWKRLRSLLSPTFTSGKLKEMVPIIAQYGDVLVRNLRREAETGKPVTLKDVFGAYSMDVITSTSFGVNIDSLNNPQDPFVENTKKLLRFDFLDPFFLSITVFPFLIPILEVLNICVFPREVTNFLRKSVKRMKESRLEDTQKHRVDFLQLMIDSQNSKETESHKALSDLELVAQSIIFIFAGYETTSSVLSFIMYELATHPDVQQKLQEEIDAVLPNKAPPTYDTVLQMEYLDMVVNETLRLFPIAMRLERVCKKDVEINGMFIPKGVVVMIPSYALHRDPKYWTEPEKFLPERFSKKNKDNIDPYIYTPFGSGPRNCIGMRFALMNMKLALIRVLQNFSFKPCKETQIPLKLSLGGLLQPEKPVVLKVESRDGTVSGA
Experiment: CYP3A4 inhibition, CYP3A4/BFC High Throughput Inhibitor Screening Kit
Type: in vitro ADME
Conditions: recombinant CYP, fluorogenic substrate
Assay metric: IC50 (µM)
Respond with the bare value in µM.

Given item CC1(C)CCC(CN2CCN(c3ccc(C(=O)NS(=O)(=O)c4ccc(NCC5CCOCC5)c([N+](=O)[O-])c4)c(Oc4cnc5[nH]ccc5c4)c3)CC2)=C(c2ccc(Cl)cc2)C1 , the value recorded as its IC50 is 7.2

----------
Molecular target: OATP1B1 (Homo sapiens, UniProt Q9Y6L6)
Construct: gift of D. Keppler)
Sequence (Q9Y6L6 whole entry): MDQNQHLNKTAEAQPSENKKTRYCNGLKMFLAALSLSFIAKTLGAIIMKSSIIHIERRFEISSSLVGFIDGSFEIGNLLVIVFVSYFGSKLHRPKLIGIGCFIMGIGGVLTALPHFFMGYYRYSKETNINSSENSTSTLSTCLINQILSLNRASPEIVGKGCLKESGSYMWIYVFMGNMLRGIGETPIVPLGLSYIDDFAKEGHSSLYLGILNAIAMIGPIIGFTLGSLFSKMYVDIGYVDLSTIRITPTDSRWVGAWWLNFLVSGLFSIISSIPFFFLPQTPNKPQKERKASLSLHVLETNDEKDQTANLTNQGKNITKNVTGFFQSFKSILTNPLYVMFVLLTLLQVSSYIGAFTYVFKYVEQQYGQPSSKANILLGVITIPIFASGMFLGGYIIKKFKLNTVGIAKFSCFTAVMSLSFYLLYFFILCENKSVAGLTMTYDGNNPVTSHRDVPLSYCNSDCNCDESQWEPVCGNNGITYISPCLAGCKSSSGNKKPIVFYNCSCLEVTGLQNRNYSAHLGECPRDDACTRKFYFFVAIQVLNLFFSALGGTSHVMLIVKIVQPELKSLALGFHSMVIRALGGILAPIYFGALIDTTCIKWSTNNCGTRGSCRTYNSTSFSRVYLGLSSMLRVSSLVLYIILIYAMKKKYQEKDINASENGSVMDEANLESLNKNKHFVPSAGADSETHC
Assay: OATP1B1 inhibition, 8-FcA uptake in HEK-OATP1B1 cells
Assay metric: IC50 (µM)
Respond with the bare value in µM.

Tested system OATP1B1 (Homo sapiens, UniProt Q9Y6L6); IC50 recorded for CC1(C)CCC(CN2CCN(c3ccc(C(=O)NS(=O)(=O)c4ccc(NCC5CCOCC5)c([N+](=O)[O-])c4)c(Oc4cnc5[nH]ccc5c4)c3)CC2)=C(c2ccc(Cl)cc2)C1 was 47.8

----------
Experiment: Growth inhibition assay in L-MDR1 cells
Format: cell-based, porcine
Conditions: pig, L-MDR1 cells (LLC-PK1 over-expressing human ABCB1/P-gp); L-MDR1, P-gp over-expressing
Experimental: LLC-PK1 and L-MDR1 cells. […] L-MDR1 cells were kindly provided by A. H. Schinkel (The Netherlands Cancer Institute, Division of Experimental Therapy, Amsterdam, The Netherlands). The cells were cultured under standard cell culture conditions with medium M199 supplemented with 10% FCS, 2 mM of glutamine, 100 U/mL of penicillin, and 100 µg/mL of streptomycin sulfate. […] Proliferation was quantified by crystal violet staining of the surviving cells as described previously. […]
Assay metric: IC50 (µM)
Respond with the bare value in µM.

Given item CC1(C)CCC(CN2CCN(c3ccc(C(=O)NS(=O)(=O)c4ccc(NCC5CCOCC5)c([N+](=O)[O-])c4)c(Oc4cnc5[nH]ccc5c4)c3)CC2)=C(c2ccc(Cl)cc2)C1 , the value recorded as its IC50 is 53.1

----------
Test: Growth inhibition assay in MDCKII-MRP2 cells
Assay type: cell-based
Settings: dog, MDCKII-MRP2 cells (MRP2 over-expressing)
Assay metric: pIC50
Please note pIC50 is a logarithmic value: minus log10 of concentration in mol/L. Answer with that number alone.

Given item CC1(C)CCC(CN2CCN(c3ccc(C(=O)NS(=O)(=O)c4ccc(NCC5CCOCC5)c([N+](=O)[O-])c4)c(Oc4cnc5[nH]ccc5c4)c3)CC2)=C(c2ccc(Cl)cc2)C1 [Venetoclax] , the value recorded as its pIC50 is 4.76

----------
Molecular target: CYP2C19 (Homo sapiens, UniProt P33261)
Sequence (P33261 whole entry): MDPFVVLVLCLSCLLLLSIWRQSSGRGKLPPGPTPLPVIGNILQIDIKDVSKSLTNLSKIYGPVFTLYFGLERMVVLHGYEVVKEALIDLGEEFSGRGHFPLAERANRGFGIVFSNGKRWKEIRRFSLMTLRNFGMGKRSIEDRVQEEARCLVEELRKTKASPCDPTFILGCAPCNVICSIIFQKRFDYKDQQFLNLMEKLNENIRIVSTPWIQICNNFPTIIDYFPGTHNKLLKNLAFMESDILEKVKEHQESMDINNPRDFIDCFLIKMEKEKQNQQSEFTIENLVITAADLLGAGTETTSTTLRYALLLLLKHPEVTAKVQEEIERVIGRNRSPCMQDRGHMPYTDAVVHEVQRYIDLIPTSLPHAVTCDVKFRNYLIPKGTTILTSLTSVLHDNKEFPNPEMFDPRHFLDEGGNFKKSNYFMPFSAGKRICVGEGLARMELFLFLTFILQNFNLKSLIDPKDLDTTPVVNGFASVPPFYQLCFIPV
Assay: CYP2C19 inhibition, CYP2C19/CEC High Throughput Inhibitor Screening Kit
Conditions: recombinant CYP, fluorogenic substrate
Assay metric: pIC50
Please note pIC50 is a logarithmic value: minus log10 of concentration in mol/L. Answer with that number alone.

Given item CC1(C)CCC(CN2CCN(c3ccc(C(=O)NS(=O)(=O)c4ccc(NCC5CCOCC5)c([N+](=O)[O-])c4)c(Oc4cnc5[nH]ccc5c4)c3)CC2)=C(c2ccc(Cl)cc2)C1 [Venetoclax] , the value recorded as its pIC50 is 4.85

----------
Assay: Growth inhibition assay in L-MDR1 cells
Assay type: cell-based, porcine
Conditions: pig, L-MDR1 cells (LLC-PK1 over-expressing human ABCB1/P-gp), with LY335979 (P-gp inhibitor); L-MDR1 + LY335979 (1 µM)
Assay metric: IC50 (µM)
Respond with the bare value in µM.

Given item CC1(C)CCC(CN2CCN(c3ccc(C(=O)NS(=O)(=O)c4ccc(NCC5CCOCC5)c([N+](=O)[O-])c4)c(Oc4cnc5[nH]ccc5c4)c3)CC2)=C(c2ccc(Cl)cc2)C1 [Venetoclax] , the value recorded as its IC50 is 25.7

----------
Test: Growth inhibition assay in MDCKII-BCRP cells
Format: cell-based
Settings: dog, MDCKII-BCRP cells (BCRP over-expressing)
Assay metric: pIC50
Please note pIC50 is a logarithmic value: minus log10 of concentration in mol/L. Answer with that number alone.

Given item CC1(C)CCC(CN2CCN(c3ccc(C(=O)NS(=O)(=O)c4ccc(NCC5CCOCC5)c([N+](=O)[O-])c4)c(Oc4cnc5[nH]ccc5c4)c3)CC2)=C(c2ccc(Cl)cc2)C1 , the value recorded as its pIC50 is 4.80

----------
Biological target: OATP1B3 (Homo sapiens)
Construct: gift of D. Keppler)
Sequence (Q9NPD5 1-702): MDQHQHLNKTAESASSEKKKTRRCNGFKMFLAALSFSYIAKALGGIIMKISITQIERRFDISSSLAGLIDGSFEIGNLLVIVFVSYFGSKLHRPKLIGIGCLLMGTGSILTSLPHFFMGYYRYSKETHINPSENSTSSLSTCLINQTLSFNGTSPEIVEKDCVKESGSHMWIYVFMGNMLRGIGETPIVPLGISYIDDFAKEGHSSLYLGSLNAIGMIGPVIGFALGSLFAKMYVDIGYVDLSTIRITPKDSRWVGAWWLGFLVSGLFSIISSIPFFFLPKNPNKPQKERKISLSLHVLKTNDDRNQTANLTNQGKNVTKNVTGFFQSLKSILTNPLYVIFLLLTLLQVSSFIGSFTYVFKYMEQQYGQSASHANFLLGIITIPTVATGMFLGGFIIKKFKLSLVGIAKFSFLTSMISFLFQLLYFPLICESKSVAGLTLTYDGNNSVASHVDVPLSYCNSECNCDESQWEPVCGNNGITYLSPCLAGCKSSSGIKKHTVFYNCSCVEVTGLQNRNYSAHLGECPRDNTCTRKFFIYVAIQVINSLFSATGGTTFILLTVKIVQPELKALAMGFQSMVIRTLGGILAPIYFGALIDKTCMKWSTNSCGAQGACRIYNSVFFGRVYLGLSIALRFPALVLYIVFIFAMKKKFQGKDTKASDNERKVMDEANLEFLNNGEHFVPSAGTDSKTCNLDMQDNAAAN
Assay: OATP1B3 inhibition, 8-FcA uptake in HEK-OATP1B3 cells
Protocol: HEK293 cells. For assessing inhibition of OATP1B1 and OATP1B3, the human embryonic kidney cell line HEK293 stably transfected with OATP1B1 (HEK-OATP1B1), OATP1B3 (HEK-OATP1B3), or the empty control vector (HEK293-VCG418) were used. […] Inhibition of OATP1B1 and OATP1B3 was analyzed in HEK-OATP1B1 and HEK-OATP1B3 cells by quantifying the uptake of the fluorescent substrate 8-FcA by flow cytometry as described previously. […]
Assay metric: pIC50
Please note pIC50 is a logarithmic value: minus log10 of concentration in mol/L. Answer with that number alone.

Tested system OATP1B3 (Homo sapiens); pIC50 recorded for CC1(C)CCC(CN2CCN(c3ccc(C(=O)NS(=O)(=O)c4ccc(NCC5CCOCC5)c([N+](=O)[O-])c4)c(Oc4cnc5[nH]ccc5c4)c3)CC2)=C(c2ccc(Cl)cc2)C1 [Venetoclax] was 4.59
